- assayed_target: Human immunodeficiency virus type 1 reverse transcriptase (Human immunodeficiency virus 1, UniProt Q72547)
- method_notes: Inhibition of HIV1 RT using A5'-end 32P-labeled 24-mer primer/a48-mer template preincubated for 5 mins followed by 0.5 uM nucleotides addition measured after 15 mins by gel-based primer extension assay
property_label: pIC50
Lab note: report pIC50 as minus log10 of the concentration in molar units, number only.

Using known records, supply pIC50 for "CC1(C)CC(=O)c2c(nc3c(c(C#N)cn3Cc3ccccc3)c2-c2ccccc2)C1"
5.00

---

- method_notes: Cytotoxicity against HIV1 infected human PBMC cells assessed as reduction in cell viability after 7 days by MTT assay
- Format: cell-based
- applied_conditions: HIV1 infected PBMC cells
property_label: CC50 at 168 h

Quickly give me recorded CC50 at 168 h for "Cc1ccnc2c1NC(=O)c1cccnc1N2C1CC1"
> 100 µM

---

The following molecules are listed with their measured pIC50 values.
- assayed_target: Human immunodeficiency virus type 1 reverse transcriptase (Human immunodeficiency virus 1, UniProt Q72547, E138K)
Conceptually, pIC50 converts a concentration in mol/L into minus its log10.

smiles_str: CC1(C)CC(=O)c2c(nc3c(c(C#N)cn3Cc3ccccc3)c2-c2ccccc2)C1
pIC50: 4.16

Next molecule, please.
Query pIC50 for "CC(=O)c1c(C)nc2c(c(C#N)cn2Cc2ccccc2)c1-c1ccc([N+](=O)[O-])cc1"
4.23

---

- method_notes: Cytotoxicity against HIV1 infected human CEM cells assessed as reduction in cell viability after 7 days by MTT assay
- Type: cell-based, CCRF-CEM
- applied_conditions: HIV1 infected CEM (CCRF-CEM) cells
property_label: CC50 at 168 h

Given "Cc1ccnc2c1NC(=O)c1cccnc1N2C1CC1" , respond with its CC50 at 168 h.
> 100 µM

---

- Tested on: Vero
- method_notes: Cytotoxicity against HIV1 infected African green monkey Vero cells assessed as reduction in cell viability after 7 days by MTT assay
- Assay type: cell-based
- applied_conditions: chlorocebus sabaeus, vero, 168 h
property_label: CC50

smiles_str: Cc1ccc(-c2cnc3c(c2)c(C#N)cn3Cc2ccccc2)cc1
CC50: 8.1 µM
--
smiles_str: O=C1Nc2ccc(Cl)cc2[C@@](C#CC2CC2)(C(F)(F)F)O1
CC50: > 100 µM
--
smiles_str: CC(C)(C)n1cc(C#N)c2cc(C=O)cnc21
CC50: 8.1 µM
--
smiles_str: CCCCn1cc(C#N)c2c(-c3ccc(C(F)(F)F)cc3F)c3c(nc21)-c1ccccc1C3=O
CC50: 6.8 µM
--
smiles_str: C=CCn1cc(C#N)c2cc(C#N)cnc21
CC50: > 100 µM
--
smiles_str: CCCc1c2c(nc3c1c(C#N)cn3C1CCCCC1)CCC2=O
CC50: > 100 µM
--
smiles_str: N#Cc1cn(Cc2ccccc2)c2ncc(Br)cc12
CC50: > 100 µM
--
smiles_str: CC(=O)c1cc2c(-c3ccc(N(C)C)cc3)c3c(nc2[nH]1)-c1ccccc1C3=O
CC50: 11 µM

Hello, please tell me recorded CC50 for this one: "CC1(C)CC(=O)c2cc3c(C#N)cn(Cc4ccccc4)c3nc2C1"
> 100 µM

Identify CC50 associated with the molecule "CC1(C)CC(=O)c2c(nc3c(c(C#N)cn3Cc3ccccc3)c2-c2ccccc2)C1"
> 100 µM

Tell me measured CC50 for "CC(=O)c1c(C)nc2c(c(C#N)cn2Cc2ccccc2)c1-c1ccc([N+](=O)[O-])cc1" please.
> 100 µM
